Consider the following molecules; for each one, report its fold_change.
System: zebrafish larvae, 120 hpf
ASSAY_REMARKS: Larval photomotor response (LPR) assay after vial exposure
Type: in vivo, Danio rerio
TEST_PARAMETERS: LPR, period light, round 1, conc 25
Number, no unit, nothing else.

Returns the measured fold_change for the input molecule. Input: `Cc1cccc2ccccc12`
0.4697

Returns the measured fold_change for the input molecule. Input: `Cc1ccc2c(C)c(C)ccc2c1C`
-0.1531

Returns the measured fold_change for the input molecule. Input: `Cc1ccc2ccc(C)cc2c1`
1.005

Returns the measured fold_change for the input molecule. Input: `CCc1ccc2cc(CC)ccc2c1`
0.1223

Returns the measured fold_change for the input molecule. Input: `CC(C)c1ccc2cc(C(C)C)ccc2c1`
-0.2588

Returns the measured fold_change for the input molecule. Input: `Cc1cc2ccccc2cc1C`
-0.6826

Returns the measured fold_change for the input molecule. Input: `Cc1ccc2ccccc2c1`
0.2057

Returns the measured fold_change for the input molecule. Input: `Cc1cccc2cccc(C)c12`
0.4908

Returns the measured fold_change for the input molecule. Input: `CC(C)(C)c1ccc2ccc(C(C)(C)C)cc2c1`
0.3464

Returns the measured fold_change for the input molecule. Input: `Cc1ccc(C)c2ccccc12`
0.6023

Returns the measured fold_change for the input molecule. Input: `Cc1ccc2cccc(C)c2c1`
0.1308

* * *

System: zebrafish larvae, 120 hpf
ASSAY_REMARKS: Larval photomotor response (LPR) assay after vial exposure
Assay type: in vivo, Danio rerio
TEST_PARAMETERS: LPR, period dark, round 1, conc 12.5
Label T when fold_change is strictly below -0.3; otherwise label F.

Identify whether the compound `CC(C)c1ccc2cc(C(C)C)ccc2c1` records fold_change below -0.3.
F

Identify whether the compound `Cc1ccc2ccc(C)cc2c1` records fold_change below -0.3.
F

Identify whether the compound `CC(C)c1ccc2ccccc2c1` records fold_change below -0.3.
T

Identify whether the compound `Cc1cc2c(C)ccc(C)c2cc1C` records fold_change below -0.3.
T

Identify whether the compound `CCc1cccc2ccccc12` records fold_change below -0.3.
F

Identify whether the compound `Cc1cccc2cccc(C)c12` records fold_change below -0.3.
F

Identify whether the compound `CCc1ccc2ccccc2c1` records fold_change below -0.3.
T

Identify whether the compound `Cc1ccc2c(C)c(C)ccc2c1C` records fold_change below -0.3.
T

Identify whether the compound `Cc1ccc2ccccc2c1` records fold_change below -0.3.
F

Identify whether the compound `Cc1ccc2cc(C)ccc2c1` records fold_change below -0.3.
F

Identify whether the compound `CC(C)(C)c1ccc2ccc(C(C)(C)C)cc2c1` records fold_change below -0.3.
T

Identify whether the compound `CCc1ccc2cc(CC)ccc2c1` records fold_change below -0.3.
T

Identify whether the compound `CCCCc1ccc2ccccc2c1` records fold_change below -0.3.
T

Identify whether the compound `Cc1ccc(C)c2ccccc12` records fold_change below -0.3.
F

Identify whether the compound `Cc1cc(C)c2c(C)cccc2c1` records fold_change below -0.3.
T

Identify whether the compound `Cc1cccc2ccccc12` records fold_change below -0.3.
T

Identify whether the compound `Cc1cc2ccccc2cc1C` records fold_change below -0.3.
F

Identify whether the compound `Cc1cccc2c(C)cccc12` records fold_change below -0.3.
F

Identify whether the compound `Cc1ccc2cccc(C)c2c1` records fold_change below -0.3.
T

Identify whether the compound `Cc1ccc(C)c2c(C)cccc12` records fold_change below -0.3.
F

Identify whether the compound `Cc1cc2cccc(C)c2cc1C` records fold_change below -0.3.
F

* * *

Tested on: zebrafish larvae, 120 hpf
ASSAY_REMARKS: Larval photomotor response (LPR) assay after vial exposure
Type: in vivo, Danio rerio
TEST_PARAMETERS: LPR, period light, round 2, conc 37.5
Consider the following compounds; for each one, report its fold_change.
Number, no unit, nothing else.

Returns the measured fold_change for the input compound. Input: `Cc1cccc2c(C)cccc12`
0.2643

Returns the measured fold_change for the input compound. Input: `Cc1cccc2cccc(C)c12`
-0.3043

Returns the measured fold_change for the input compound. Input: `CCc1cccc2ccccc12`
-0.206

Returns the measured fold_change for the input compound. Input: `CCc1ccc2ccccc2c1`
-0.3232

* * *

Test system: zebrafish larvae, 120 hpf
ASSAY_REMARKS: Larval photomotor response (LPR) assay after vial exposure
Assay type: in vivo, Danio rerio
TEST_PARAMETERS: LPR, period light, round 1, conc 6.25
The class of a record is decided solely by its measured fold_change; consult low value = under -0.2, medium value = from -0.2 up to 0.1, high value = 0.1 and over

// bin(item) where item = `Cc1cccc2cccc(C)c12`
high value

// bin(item) where item = `Cc1cccc2ccccc12`
high value

// bin(item) where item = `Cc1cccc2c(C)cccc12`
high value

// bin(item) where item = `CCc1ccc2ccccc2c1`
medium value

// bin(item) where item = `CCc1ccc2cc(CC)ccc2c1`
high value

// bin(item) where item = `Cc1ccc(C)c2ccccc12`
low value

// bin(item) where item = `Cc1ccc2ccccc2c1`
medium value

// bin(item) where item = `Cc1ccc2c(C)c(C)ccc2c1C`
low value

// bin(item) where item = `CC(C)c1ccc2ccccc2c1`
high value

// bin(item) where item = `Cc1cc2cccc(C)c2cc1C`
low value

// bin(item) where item = `CC(C)(C)c1ccc2ccc(C(C)(C)C)cc2c1`
high value

// bin(item) where item = `CCc1cccc2ccccc12`
low value

// bin(item) where item = `Cc1cc2ccccc2cc1C`
medium value

// bin(item) where item = `Cc1ccc2cccc(C)c2c1`
medium value

// bin(item) where item = `CC(C)c1ccc2cc(C(C)C)ccc2c1`
low value

// bin(item) where item = `Cc1ccc2ccc(C)cc2c1`
high value

// bin(item) where item = `CCCCc1ccc2ccccc2c1`
low value

// bin(item) where item = `Cc1cc2c(C)ccc(C)c2cc1C`
medium value

// bin(item) where item = `Cc1ccc(C)c2c(C)cccc12`
medium value

* * *

Tested on: zebrafish larvae, 120 hpf
ASSAY_REMARKS: Larval photomotor response (LPR) assay after vial exposure
Format: in vivo, Danio rerio
TEST_PARAMETERS: LPR, period light, round 2, conc 20
Protocol: When embryos were 6 hpf they were bleached in groups of 1000 or less to limit bacterial growth in sealed vials. Embryos were placed in a strainer for transfer between solutions in 500 mL containers. […] Pools of eight embryos were placed into 2 mL clear glass screw cap exposure vials with polyvinyl-faced pulp liner (Avantar Radnor, PA, United States) using a glass Pasteur pipette. […] After loading into 96-well plates, embryos were assessed for 24-hour mortality. […]
VALUE_KIND: fold_change

Returns the measured fold_change for the input compound. Input: Cc1cc(C)c2c(C)cccc2c1 [2,4,5-trimethylnaphthalene]
0.3257

Returns the measured fold_change for the input compound. Input: CC(C)c1ccc2ccccc2c1 [2-isopropylnaphthalene]
0.1913

Returns the measured fold_change for the input compound. Input: Cc1ccc(C)c2c(C)cccc12 [1,4,5-trimethylnaphthalene]
1.443

Returns the measured fold_change for the input compound. Input: Cc1cc2cccc(C)c2cc1C [1,6,7-trimethylnaphthalene]
0.7418

* * *

Tested on: zebrafish larvae, 120 hpf
ASSAY_REMARKS: Larval photomotor response (LPR) assay after vial exposure
Format: in vivo, Danio rerio
TEST_PARAMETERS: LPR, period light, round 1, conc 3.125
Label yes when fold_change is strictly below -0.1; otherwise label no.

Identify whether the compound `Cc1cc2cccc(C)c2cc1C` records fold_change below -0.1.
yes

Identify whether the compound `CCc1ccc2ccccc2c1` records fold_change below -0.1.
yes

Identify whether the compound `Cc1ccc2ccc(C)cc2c1` records fold_change below -0.1.
no

Identify whether the compound `CCc1ccc2cc(CC)ccc2c1` records fold_change below -0.1.
no

Identify whether the compound `CC(C)(C)c1ccc2ccc(C(C)(C)C)cc2c1` records fold_change below -0.1.
no

Identify whether the compound `Cc1ccc2c(C)c(C)ccc2c1C` records fold_change below -0.1.
no

Identify whether the compound `CC(C)c1ccc2ccccc2c1` records fold_change below -0.1.
no

Identify whether the compound `Cc1cc2c(C)ccc(C)c2cc1C` records fold_change below -0.1.
yes

Identify whether the compound `CCc1cccc2ccccc12` records fold_change below -0.1.
yes

Identify whether the compound `Cc1ccc(C)c2c(C)cccc12` records fold_change below -0.1.
no

Identify whether the compound `Cc1cc(C)c2c(C)cccc2c1` records fold_change below -0.1.
yes

Identify whether the compound `Cc1cccc2c(C)cccc12` records fold_change below -0.1.
no

Identify whether the compound `Cc1cccc2cccc(C)c12` records fold_change below -0.1.
no

Identify whether the compound `Cc1cccc2ccccc12` records fold_change below -0.1.
no

Identify whether the compound `Cc1ccc2cc(C)ccc2c1` records fold_change below -0.1.
yes

* * *

Tested on: zebrafish larvae, 120 hpf
ASSAY_REMARKS: Larval photomotor response (LPR) assay after vial exposure
Type: in vivo, Danio rerio
TEST_PARAMETERS: LPR, period dark, round 2, conc 12.8
Consider the following compounds; for each one, report its fold_change.
Number, no unit, nothing else.

Returns the measured fold_change for the input compound. Input: Cc1cc2cccc(C)c2cc1C [1,6,7-trimethylnaphthalene]
-0.1665

Returns the measured fold_change for the input compound. Input: Cc1cc(C)c2c(C)cccc2c1 [2,4,5-trimethylnaphthalene]
-0.3131

Returns the measured fold_change for the input compound. Input: CC(C)c1ccc2ccccc2c1 [2-isopropylnaphthalene]
-0.9379

Returns the measured fold_change for the input compound. Input: Cc1ccc(C)c2c(C)cccc12 [1,4,5-trimethylnaphthalene]
0.03668
